The origin of these recorded values is the supplement of paper PMC13380429.

system: Caco-2; assay: cell viability relative to DMSO; higher = less toxic; conditions: 72 h; 100 nM
cell viability for assorted compounds
Unit % implied. Number only.

# COMPOUND, TARGET DESC, cell viability, %
rows = [
    ("Cc1cnc(C(=O)N[C@H]2CCCCC/C=C\\[C@@H]3C[C@@]3(C(=O)NS(=O)(=O)C3CC3)NC(=O)[C@@H]3C[C@@H](Oc4nc5ccccc5c5ccccc45)CN3C2=O)cn1", "Caco-2", 103),
    ("C=C(C)[C@@H]1CC[C@]2(C(=O)O)CC[C@]3(C)[C@H](CC[C@@H]4[C@@]5(C)CC[C@H](O)C(C)(C)[C@@H]5CC[C@]43C)[C@@H]12", "Caco-2", 92.3),
    ("N=C(N)NCCC[C@H](NC(=O)c1sccc1NS(=O)(=O)c1cccc2nsnc12)C(=O)O", "Caco-2", 98.5),
    ("C[C@@H](Oc1ccc2[nH]nc(/C=C/c3cnn(CCO)c3)c2c1)c1c(Cl)cncc1Cl", "Caco-2", 91.5),
    ("COCc1c(-c2ccc(NC(=O)Nc3cc(C(F)(F)F)ccc3F)c(F)c2)c2c(N)ncnn2c1CN1CCOCC1", "Caco-2", 102),
]

Ask: Returns the measured cell viability for the input compound. Input: CC[N+](C)(CC)CC(=O)Nc1c(C)cccc1C [N-methyllidocaine-iodide]
Reply: 103

Ask: Give its cell viability value. Item: "N[C@@H](C(=O)O)c1cc(O)ccc1Cl"
Reply: 94.8
